Experiment: qHTS for Inhibitors of Plasmodium falciparum (HB3) proliferation (AID 504318);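 also: 0% = DMSO vehicle and -100% = artemisinin control; nearly all actives have a fitted effect of over 60% in size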
Conditions: P. falciparum HB3 in erythrocytes, SYBR Green DNA, 72 h; series mostly up to 7.21 µM
Records with an inconclusive call do not appear. Calls of active or inactive are those of the source. Calls follow the shape of the dose curve; as a rule, active = well fitted inhibition curve with a large enough effect; inconclusive = small, poorly fitted or top-dose-only effect; inactive = flat fitted curve, though single readings scatter.
measure: outcome

{"molecule": "COCCN1C(=O)NC(c2ccccc2)C(C(=O)OC)=C1C (stereo unspecified)", "experimental_value": "inactive"}
{"molecule": "C=CCCCN1C(=O)NC(c2ccccc2)C(C(=O)OC)=C1C (stereo unspecified)", "experimental_value": "inactive"}
{"molecule": "COCCN1C=C2C(=O)C(C)(OC(=O)c3cccs3)C(=O)C=C2C=C1CCCC(=O)OC (stereo unspecified)", "experimental_value": "inactive"}
{"molecule": "CCCCn1c(C)cc2c(c1=O)[C@H]1O[C@](c3ccsc3)(Cc3cc(OC)c(OC)cc31)O2", "experimental_value": "inactive"}
{"molecule": "CC=CCCN1C=C(C(=O)OCC)C(c2ccccc2)NC1=O (stereo unspecified)", "experimental_value": "inactive"}

Now let's try a different one.
// query Please report the measured outcome for CC(=CCO)CCO
// result inactive

---

Target: Cytochrome P450 2C9 (Homo sapiens) (UniProt P11712)
Sequence (P11712 whole entry, looked up): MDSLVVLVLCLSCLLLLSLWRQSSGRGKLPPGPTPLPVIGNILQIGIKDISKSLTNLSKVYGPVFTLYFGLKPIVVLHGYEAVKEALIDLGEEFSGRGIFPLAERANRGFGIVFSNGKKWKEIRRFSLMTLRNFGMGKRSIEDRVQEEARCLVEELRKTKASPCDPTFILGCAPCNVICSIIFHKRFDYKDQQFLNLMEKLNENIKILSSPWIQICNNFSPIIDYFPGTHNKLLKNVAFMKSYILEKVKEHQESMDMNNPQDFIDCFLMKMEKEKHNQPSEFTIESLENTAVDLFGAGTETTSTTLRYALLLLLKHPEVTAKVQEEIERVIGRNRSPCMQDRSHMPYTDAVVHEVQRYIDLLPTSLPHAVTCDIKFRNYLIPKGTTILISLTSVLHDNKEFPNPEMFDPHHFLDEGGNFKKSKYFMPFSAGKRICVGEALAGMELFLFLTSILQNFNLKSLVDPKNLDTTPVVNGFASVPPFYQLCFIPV
Assay: qHTS Assay for Inhibitors and Substrates of Cytochrome P450 2C9 (AID 883); also: % is scaled to controls: 0 for no effect and ±100 for the full control effect; nearly all actives have a fitted effect of over 60% in size
Conditions: recombinant CYP2C9, luciferin-H luminescence, 60 min; series mostly up to 57.1 µM
Records with an inconclusive call do not appear. Activity calls are given as the source filed them. Calls follow the shape of the dose curve; as a rule, active = well fitted inhibition curve with a large enough effect; inconclusive = small, poorly fitted or top-dose-only effect; inactive = no such curve, though single readings can be large or run the other way.
Property: activity change, negative = inhibition; scope: individual compounds

Here is how some compounds turned out for activity change, negative = inhibition.
{"compound": "CCCCCCCC1=CC2=CC(=O)C(C)(O)C(=O)C2=CN1CCCC (stereo not drawn)", "experimental_value": "13.4% [at 11.4 µM] (inactive)"}
{"compound": "Cc1c(O)c(=O)ccn1Cc1ccccc1", "experimental_value": "-0.343% [at 11.4 µM] (inactive)"}

Now let's try a different one.
// query Please report the measured activity change, negative = inhibition for COC(=O)C(C(C)=O)C(=O)C(Cc1ccccc1)NC(=O)OCc1ccccc1 (stereo not drawn)
// result 2.74% [at 11.4 µM] (inactive)

---

Test: qHTS to identify inhibitors of the type 1 interferon - major histocompatibility complex class I in skeletal muscle: primary screen against the NCATS Mechanism Interrogation Plate v5.0 (MIPE) Libary (AID 1347411); also: nearly all actives have a fitted effect of over 65% in size; also: potency is read from the fitted curve at half-maximal effect
Conditions: iHSKM cells + IFN-b, HiBiT-tagged MHC-I luminescence, 24 h; series mostly up to 45.8 µM
Results filed as inconclusive are left out. Active and inactive are the calls of the source. Calls follow the shape of the dose curve; as a rule, active = well fitted inhibition curve with a large enough effect; inconclusive = small, poorly fitted or top-dose-only effect; inactive = no such curve, though single readings can be large or run the other way.
measure: Potency

{"compound_smiles": "COC(=O)/C=C/C(=O)N(O)CCCCNCc1ccc(COC(=O)Nc2cccc3ccccc23)cc1", "measure": "Potency", "experimental_value": "13.1 µM (active)"}
{"compound_smiles": "CN(C)Cc1cccc(N=C(c2ccccc2)c2c(O)[nH]c3cc(C(N)=O)ccc23)c1", "measure": "Potency", "experimental_value": "inactive"}
{"compound_smiles": "Cc1cc(CS(=O)(=O)c2ccccc2)cc(OCc2ccc(CN3CCC[C@@H]3CO)cc2)c1", "measure": "Potency", "experimental_value": "inactive"}

---

Tested on: HB3
Assay: qHTS profiling for inhibitors of Plasmodium falciparum proliferation (AID 504749); also: nearly all actives have a fitted effect of over 60% in size; also: potency is read from the fitted curve at half-maximal effect
Details: P. falciparum in erythrocytes, SYBR Green DNA, 72 h; series mostly up to 28.7 µM
Results filed as inconclusive are left out. The source made the active and inactive calls. Calls follow the shape of the dose curve; as a rule, active = well fitted inhibition curve with a large enough effect; inconclusive = small, poorly fitted or top-dose-only effect; inactive = flat fitted curve, though single readings scatter.
measure: Potency

Here is how some compounds turned out for Potency.
{"compound": "CC(C)C[C@@H](NC(=O)[C@H](Cc1ccccc1)NC(=O)c1cnccn1)B(O)O", "Potency": "79.4 nM (active)"}
{"compound": "O=C(CC1NCCC[C@H]1O)Cn1cnc2cc(Br)c(Cl)cc2c1=O (stereo partly specified)", "Potency": "2000 nM (active)"}
{"compound": "COC(=O)[C@@H]1[C@@H]2C[C@H]3c4[nH]c5ccccc5c4CCN3C[C@@H]2CC[C@@H]1O", "Potency": "inactive"}
{"compound": "C[C@@H](C(=O)O)c1ccc(-c2ccccc2)c(F)c1", "Potency": "inactive"}
{"compound": "CC(=O)[C@H]1CC[C@H]2C3CC=C4C[C@@H](O)CC[C@]4(C)C3CC[C@]12C (stereo partly specified)", "Potency": "inactive"}

Now let's try a different one.
// query Please report the measured Potency for CCOC(=O)C(CCc1ccccc1)NC1CCc2ccccc2N(CC(=O)O)C1=O (stereo unspecified)
// result inactive

---

Assay: Tertiary RLuc qRT-PCR qHTS assay for Zika virus inhibitors (AID 1347169); also: top concentration of the series differs between compounds; % is scaled to controls: 0 for no effect and ±100 for the full control effect; nearly all actives have a fitted effect of over 55% in size
Details: infected Vero cells, reporter luminescence, 48-72 h; series mostly up to 1.74 µM
Records with an inconclusive call do not appear. Active and inactive are the calls of the source. Calls follow the shape of the dose curve; as a rule, active = well fitted inhibition curve with a large enough effect; inconclusive = small, poorly fitted or top-dose-only effect; inactive = no such curve, though single readings can be large or run the other way.
Result category, one only: active, inactive

Consider the following illustrative entries.
{"molecule": "O=C(O)c1cc(-n2c(/C=C\\c3ccc(F)cc3)nc3ccccc3c2=O)ccc1Cl", "class_assignment": "inactive"}
{"molecule": "Cc1ccc(NC(=O)c2ccc3c(O)c(S(=O)(=O)c4ccccc4)c(=O)[nH]c3c2)cc1Cl", "class_assignment": "inactive"}
{"molecule": "CC1(C(=O)O)NCCc2cc(O)c(O)cc21 (configuration not stated)", "class_assignment": "inactive"}
{"molecule": "O=C(Nc1ccc(Oc2ccccc2)cc1)O[C@@H]1CO[C@H]2[C@@H]1OC[C@@H]2n1nnnc1-c1ccc(-c2ccccc2)cc1", "class_assignment": "inactive"}

// query Per the records of this test, what outcome belongs to COc1cc(C2Nc3ccccc3-c3nnc(SCc4ccc(Cl)cc4)nc3O2)ccc1OCC(=O)O (configuration not stated) ?
// result inactive

// query Per the records of this test, what outcome belongs to O=C(OCC#CCSc1nnc(-c2cccc3ccccc23)o1)c1ccc(F)c(F)c1 ?
// result inactive

// query Per the records of this test, what outcome belongs to O=C(Nc1ccccc1C(=O)OCc1cc(=O)n2c3c(sc2n1)CCCC3)c1ccc(Cl)cc1 ?
// result inactive

// query Per the records of this test, what outcome belongs to O=C(Nc1ccc(C(=O)Nc2ccc(C(=O)Nc3ccc(S(=O)(=O)O)c4cc(S(=O)(=O)O)cc(S(=O)(=O)O)c34)cc2)cc1)Nc1ccc(C(=O)Nc2ccc(C(=O)Nc3ccc(S(=O)(=O)O)c4cc(S(=O)(=O)O)cc(S(=O)(=O)O)c34)cc2)cc1 ?
// result inactive

// query Per the records of this test, what outcome belongs to O=C(Nc1ccc(C(=O)OCc2cc(=O)n3c4c(sc3n2)CCCC4)cc1)c1ccccc1 ?
// result inactive

// query Per the records of this test, what outcome belongs to Nc1ncnc2c1ncn2[C@@H]1O[C@H](C[C@@H](N)CC[C@H](N)C(=O)O)[C@@H](O)[C@H]1O ?
// result inactive

// query Per the records of this test, what outcome belongs to O=C(CNC(=O)c1ccc(Cl)cc1)OCc1cc(=O)n2nc(C3CCCCC3)sc2n1 ?
// result inactive

// query Per the records of this test, what outcome belongs to CC(C)c1nn2c(=O)cc(COC(=O)c3ccccc3NC(=O)c3cccc(Cl)c3)nc2s1 ?
// result inactive

---

Molecular target: Muscarinic acetylcholine receptor M1 (Rattus norvegicus)
Experiment: qHTS Assay for Antagonists of Acetylcholine Muscarinic M1 Receptor: Measurement of IP-One Response (AID 944); also: nearly all actives have a fitted effect of over 75% in size
Settings: CHO-M1 cells, IP-One HTRF, antagonist mode; series mostly up to 46.1 µM
Inconclusive results are not listed. Activity calls are given as the source filed them. Calls follow the shape of the dose curve; as a rule, active = well fitted inhibition curve with a large enough effect; inconclusive = small, poorly fitted or top-dose-only effect; inactive = no such curve, though single readings can be large or run the other way.
Result category, one only: TRUE (active), FALSE (inactive)

Consider the following illustrative entries.
{"compound_smiles": "COc1cccc(OC)c1OCCNC[C@@H]1COc2ccccc2O1", "class_assignment": "TRUE"}
{"compound_smiles": "Cc1cccc(C)c1NC(=O)C[N+](C)(C)C", "class_assignment": "FALSE"}
{"compound_smiles": "C[C@@H]1CNCCN1S(=O)(=O)c1cccc2cnccc12", "class_assignment": "FALSE"}
{"compound_smiles": "C#C[C@]1(O)CC[C@H]2[C@H]3CCC4=Cc5oncc5C[C@]4(C)[C@@H]3CC[C@]21C", "class_assignment": "TRUE"}

// query Per the records of this test, what outcome belongs to O=C(Nc1cc(C(=O)Nc2ccc(S(=O)(=O)O)cc2S(=O)(=O)O)cc(C(=O)Nc2ccc(S(=O)(=O)O)cc2S(=O)(=O)O)c1)Nc1cc(C(=O)Nc2ccc(S(=O)(=O)O)cc2S(=O)(=O)O)cc(C(=O)Nc2ccc(S(=O)(=O)O)cc2S(=O)(=O)O)c1 ?
// result FALSE

// query Per the records of this test, what outcome belongs to CC(N)=NCc1cccc(CN)c1 ?
// result FALSE

// query Per the records of this test, what outcome belongs to C[C@@H](/C=C\c1cccc(Oc2ccc(F)cc2)c1)N(O)C(N)=O ?
// result FALSE

// query Per the records of this test, what outcome belongs to CC(C)NC[C@@H](O)COc1ccc(CCOCC2CC2)cc1 ?
// result FALSE

// query Per the records of this test, what outcome belongs to CO[C@]1(C2=NCCN2)COc2ccccc2O1 ?
// result FALSE

// query Per the records of this test, what outcome belongs to O=C(O)[C@H]1CCCNC1 ?
// result FALSE

// query Per the records of this test, what outcome belongs to Cc1cccc([C@@H]2CN(C)CCc3c2cc(O)c(O)c3Cl)c1 ?
// result FALSE

// query Per the records of this test, what outcome belongs to NC[C@](O)(CS(=O)(=O)O)c1ccc(Cl)cc1 ?
// result FALSE
